Entry source: patent US6583154B1

Counter-ions that a name gives are not always drawn.

{"columns": ["compound", "melting point"],
 "data": [
  ["Cc1nc(N2CCCCC2)c2[nH]c(-c3ccccc3C(F)(F)F)cc2n1.Cl (hydrate or solvate)", "> 280 °C"],
  ["Cc1nc(N2CCCCC2)c2[nH]c(-c3ccc(F)cc3)c(C)c2n1.Cl (hydrate or solvate)", "> 280 °C"],
  ["Cc1nc(N2CCCCCC2)c2[nH]c(-c3ccccc3)cc2n1", "209 to 210 °C"],
  ["CNc1nc(N2CCCCC2)c2[nH]c(-c3ccccc3)cc2n1 (as salt: hydrochloride) (hydrate or solvate)", "195 to 200 °C"],
  ["Cc1nc(N2CCCCC2)c2[nH]c(-c3c(F)cccc3F)cc2n1.Cl (hydrate or solvate)", "> 280 °C"],
  ["Cc1nc(N2CC=CCC2)c2sc(-c3ccccc3)cc2n1 (as salt: hydrochloride) (hydrate or solvate)", "279 to 281 °C"],
  ["CCC1CCCCN1c1nc(C)nc2cc(-c3ccccc3)[nH]c12 (stereo not shown) (as salt: hydrochloride) (hydrate or solvate) [Example 64, Hydrochloride Hydrate]", "228 to 229 °C"],
  ["Cc1nc(N2CCCCC2)c2[nH]c(-c3ccc4c(c3)Cc3ccccc3-4)cc2n1.Cl (hydrate or solvate)", "> 280 °C"],
  ["Cc1nc(N2CCc3ccccc3C2)c2[nH]c(-c3ccccc3)cc2n1", "251 to 253 °C (dec.)"],
  ["Cc1nc(NCc2ccccc2)c2[nH]c(-c3ccccc3)cc2n1", "275 to 276.5 °C"],
  ["CCCCc1cc2nc(C)cc(N3CCCCC3)c2o1.Cl", "172 to 173 °C"],
  ["Cc1nc(N2[C@H](C)CCC[C@@H]2C)c2[nH]c(-c3ccc(F)cc3)cc2n1 (as salt: hydrochloride) (hydrate or solvate)", "> 275 °C"],
  ["Cc1nc(N2CCCCC2)c2[nH]c(-c3ccc4c(c3)OCCO4)cc2n1.Cl (hydrate or solvate)", "> 280 °C"],
  ["Cl.c1coc(-c2cc3ncnc(N4CCCCC4)c3[nH]2)c1", "> 280 °C"],
  ["COc1cccc(-c2cc3nc(C)nc(N4CCCCC4)c3[nH]2)c1.Cl (hydrate or solvate)", "241 to 243 °C"],
  ["Cc1nc(N2CCCCC2)c2[nH]c(-c3ccc4c(c3)CCC4)cc2n1.Cl (hydrate or solvate)", "164 to 167 °C"]
]}
